Where do the numbers come from? From patent US20260174875A1.

Each entry below lists one item and its recorded hAMYR3 Potency, no HSA, EC50 [pM] value.
Molecular target: T1, human amylin-3(a) receptor (human, UniProt P30988 25-474; O60896 24-148)
T1 sequence (looked up) 1: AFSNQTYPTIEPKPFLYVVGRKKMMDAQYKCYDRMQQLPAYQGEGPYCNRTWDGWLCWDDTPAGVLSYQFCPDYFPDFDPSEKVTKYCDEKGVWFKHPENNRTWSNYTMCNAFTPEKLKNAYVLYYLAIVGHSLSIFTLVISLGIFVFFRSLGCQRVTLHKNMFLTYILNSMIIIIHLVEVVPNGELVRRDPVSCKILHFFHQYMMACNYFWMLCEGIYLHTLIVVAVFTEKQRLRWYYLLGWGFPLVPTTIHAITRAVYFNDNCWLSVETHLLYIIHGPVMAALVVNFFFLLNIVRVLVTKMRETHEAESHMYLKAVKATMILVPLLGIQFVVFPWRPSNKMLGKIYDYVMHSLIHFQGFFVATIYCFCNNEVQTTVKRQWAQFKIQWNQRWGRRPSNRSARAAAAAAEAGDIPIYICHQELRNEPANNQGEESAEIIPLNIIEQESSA
T1 sequence (looked up) 2: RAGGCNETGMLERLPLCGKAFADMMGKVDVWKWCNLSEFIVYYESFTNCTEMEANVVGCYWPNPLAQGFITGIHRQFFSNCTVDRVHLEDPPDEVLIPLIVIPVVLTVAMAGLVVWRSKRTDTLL
Experiment: cell-based or functional assay
Numbered stars: 1 amine (or outer) side, 2 acyl side, 3 side chain; on linkers, the order of the positions; unused ones are H or OH. Square brackets hold non-standard residues; d marks the D form. Side chains are listed from the residue outwards. * marks the point of attachment. C20 diacid = O=C(O)CCCCCCCCCCCCCCCCCCC(=O)*; C18 diacid = O=C(O)CCCCCCCCCCCCCCCCC(=O)*; γGlu = O=C(O)[C@H](CCC(=O)[*:2])N[*:1]; Chem. 28 = not defined here; AEEA = NCCOCCOCC(=O)O; Aib = CC(C)(N)C(=O)O
Quick note: number first, unit second.

{"columns": ["binder", "hAMYR3 Potency, no HSA, EC50 [pM]"],
 "data": [
  ["Compound 76 (peptide) peptide: Y[Aib]EGTFTSDYSILLEEQAAREFIEWLLAGGPSSGAGQAPGQAPGASHLSTAQTQRLSAELHRLATLPK([AEEA-AEEA-γGlu-C20 diacid])TETGSGSP-NH2", "3.11 pM"],
  ["Compound 82 (peptide) peptide: H[Aib]HGTFTSDYSILLEEQAAREFIEWLLAGGPSSGEASHLSTAQTQRLSAK([AEEA-AEEA-γGlu-C18 diacid])LHRLATLPRTETGSGSP-NH2", "3.26 pM"],
  ["Compound 19 (reading uncertain) peptide: Y[Aib]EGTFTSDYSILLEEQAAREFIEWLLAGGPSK(Chem. 28)GEASELSTAALGRLSAELHRLATLPRTETGSGSP-NH2", "4.24 pM"]
]}

Please find the next binder below.
Challenge: // lookup hAMYR3 Potency, no HSA, EC50 [pM] for Compound 100 (reading uncertain) peptide: H[Aib]HGTFTSDYSILLEEQAAREFIEWLLAGGPSK(Chem. 28)GAPPPSGGGEASHLSTAQTARLSAELHRLADLPRTETGSGSP-NH2
Response given: 3.05 pM
